conditions: in cyclohexane, 323.2 K
outcome-measure: solubility (mole fraction)

molecule-smiles: O=c1c(-c2ccc(O)cc2)coc2cc(O[C@@H]3O[C@H](CO)[C@@H](O)[C@H](O)[C@H]3O)ccc12
readout-value: 1.37e-06

----------
conditions: in ethyl acetate, 323.2 K
outcome-measure: solubility (mole fraction)

molecule-smiles: O=c1c(-c2ccc(O)cc2)coc2cc(O[C@@H]3O[C@H](CO)[C@@H](O)[C@H](O)[C@H]3O)ccc12
readout-value: 6.74e-05

----------
conditions: in THF, 313.2 K

molecule-smiles: O=c1c(-c2ccc(O)cc2)coc2cc(O[C@@H]3O[C@H](CO)[C@@H](O)[C@H](O)[C@H]3O)ccc12
solubility (mole fraction): 0.0165

----------
settings: in THF, 283.2 K
outcome-measure: solubility (mole fraction)

molecule-smiles: O=c1c(-c2ccc(O)cc2)coc2cc(O[C@@H]3O[C@H](CO)[C@@H](O)[C@H](O)[C@H]3O)ccc12
readout-value: 0.000784

----------
settings: in water, 303.2 K

molecule-smiles: O=c1c(-c2ccc(O)cc2)coc2cc(O[C@@H]3O[C@H](CO)[C@@H](O)[C@H](O)[C@H]3O)ccc12
solubility (mole fraction): 6.91e-06

----------
settings: in isopropanol, 293.2 K
outcome-measure: solubility (mole fraction)

molecule-smiles: O=c1c(-c2ccc(O)cc2)coc2cc(O[C@@H]3O[C@H](CO)[C@@H](O)[C@H](O)[C@H]3O)ccc12
outcome-measure: solubility (mole fraction)
readout-value: 0.000202

----------
settings: in cyclohexane, 303.2 K

molecule-smiles: O=c1c(-c2ccc(O)cc2)coc2cc(O[C@@H]3O[C@H](CO)[C@@H](O)[C@H](O)[C@H]3O)ccc12
solubility (mole fraction): 5.56e-07

----------
conditions: in ethanol, 303.2 K

molecule-smiles: O=c1c(-c2ccc(O)cc2)coc2cc(O[C@@H]3O[C@H](CO)[C@@H](O)[C@H](O)[C@H]3O)ccc12
solubility (mole fraction): 0.000499

----------
settings: in THF, 303.2 K
outcome-measure: solubility (mole fraction)

molecule-smiles: O=c1c(-c2ccc(O)cc2)coc2cc(O[C@@H]3O[C@H](CO)[C@@H](O)[C@H](O)[C@H]3O)ccc12
readout-value: 0.00684

----------
conditions: in methanol, 293.2 K

molecule-smiles: O=c1c(-c2ccc(O)cc2)coc2cc(O[C@@H]3O[C@H](CO)[C@@H](O)[C@H](O)[C@H]3O)ccc12
solubility (mole fraction): 0.000162

----------
settings: in water, 293.2 K

molecule-smiles: O=c1c(-c2ccc(O)cc2)coc2cc(O[C@@H]3O[C@H](CO)[C@@H](O)[C@H](O)[C@H]3O)ccc12
solubility (mole fraction): 4.1e-06

----------
conditions: in ethanol, 323.2 K

molecule-smiles: O=c1c(-c2ccc(O)cc2)coc2cc(O[C@@H]3O[C@H](CO)[C@@H](O)[C@H](O)[C@H]3O)ccc12
solubility (mole fraction): 0.000813

----------
conditions: in water, 323.2 K
outcome-measure: solubility (mole fraction)

molecule-smiles: O=c1c(-c2ccc(O)cc2)coc2cc(O[C@@H]3O[C@H](CO)[C@@H](O)[C@H](O)[C@H]3O)ccc12
readout-value: 1.58e-05

----------
conditions: in acetone, 323.2 K

molecule-smiles: O=c1c(-c2ccc(O)cc2)coc2cc(O[C@@H]3O[C@H](CO)[C@@H](O)[C@H](O)[C@H]3O)ccc12
solubility (mole fraction): 0.000553
